- tested_target: human protease activated receptor 1 (PAR-1) (Homo sapiens)
- Construct: the cell stably expresses the endogenous human PAR-1 receptor; endogenous in cells
- Sequence (P25116 22-425): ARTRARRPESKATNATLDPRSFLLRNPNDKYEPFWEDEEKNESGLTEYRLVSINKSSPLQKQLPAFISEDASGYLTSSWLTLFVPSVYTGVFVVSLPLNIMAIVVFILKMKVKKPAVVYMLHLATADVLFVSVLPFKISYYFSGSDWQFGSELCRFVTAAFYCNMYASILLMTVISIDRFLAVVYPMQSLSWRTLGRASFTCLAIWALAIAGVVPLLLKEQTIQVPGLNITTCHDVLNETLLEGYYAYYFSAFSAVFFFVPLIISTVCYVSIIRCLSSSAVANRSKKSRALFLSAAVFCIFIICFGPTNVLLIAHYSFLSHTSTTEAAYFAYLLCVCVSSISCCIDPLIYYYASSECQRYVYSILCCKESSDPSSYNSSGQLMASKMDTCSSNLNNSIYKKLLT
- procedure_summary: Cellular functional in vitro test (PAR-1 antagonism, aequorin luminescence calcium readout)
- condition_context: recombinant HEK293-derived aequorin cell line with endogenous PAR-1; PAR-1 agonist added at its EC50, 5 min after test substance
pIC50: −log10 of the molar value.
property_name: pIC50

Examples with answers:
Sample O=C(CC1CC(c2ccc(C(F)(F)F)cc2)CN(C(=O)N2CCOCC2)C1)Nc1ccccc1 (racemic) — what was its pIC50? 7.25

Sample O=C(N1CCOCC1)N1CC(CS(=O)(=O)C2CCCC2)CC(c2ccc(C(F)(F)F)cc2)C1 (racemic) — what was its pIC50? 7.62

P: CC(C)(C)C(=O)NCC1CC(c2ccc(C(F)(F)F)cc2)CN(C(=O)N2CCOCC2)C1 (racemic)
Q: CS(=O)(=O)NCC1CC(c2ccc(C(F)(F)F)cc2)CN(C(=O)N2CCOCC2)C1 (single isomer, unassigned)
R: O=C(N1CCOCC1)N1CC(CSc2cccc(F)c2)CC(c2ccc(C(F)(F)F)cc2)C1 (racemic)
Ordering: ascending pIC50. Please reply with the labels ordered as requested. Many thanks. P, Q, R
(P: 6.75, Q: 8.10, R: 8.52)
